System: HT-29 wt cell line
TEST_NAME: Anti-proliferative effect on HT-29 wt cell line (MTT assay)
Type: cell-based, human
TEST_CONDITIONS: Homo sapiens, HT-29 wt cells, incubation 48 to 96 hours, medium with 10% FCS
Square brackets hold non-standard residues; d marks the D form. Peptide text beside a SMILES is read from it. * marks the point of attachment. NMeVal(N-(CH2)3COOH) = CC(C)[C@@H](C(=O)*)N(C)CCCC(=O)O; Dolaproine = CO[C@@H]([C@@H]1CCCN1)[C@@H](C)C(=O)O; Dil = CC[C@H](C)[C@H](NC)[C@@H](CC(=O)O)OC; NHBn = c1ccc(CN*)cc1
Field: pIC50. Provide a value for each of the compounds that follow.
pIC50 here: minus log base 10 of the concentration, concentration in moles per litre.

Please give the measured pIC50 for this compound: CC[C@H](C)[C@@H]([C@@H](CC(=O)N1CCC[C@H]1[C@H](OC)[C@@H](C)C(=O)N[C@@H](Cc1ccccc1)C(N)=O)OC)N(C)C(=O)[C@@H](NC(=O)[C@H](C(C)C)N(C)CCCC(=O)O)C(C)C [Example 13] ({NMeVal(N-(CH2)3COOH)}-V[Dil][Dolaproine]F-NH2)
9.00

Please give the measured pIC50 for this compound: CC[C@H](C)[C@@H]([C@@H](CC(=O)N1CCC[C@H]1[C@H](OC)[C@@H](C)C(=O)N[C@@H](Cc1c[nH]c2ccccc12)C(N)=O)OC)N(C)C(=O)[C@@H](NC(=O)[C@H](C(C)C)N(C)CCCC(=O)O)C(C)C [Example 18] ({NMeVal(N-(CH2)3COOH)}-V[Dil][Dolaproine]W-NH2)
7.80

Please give the measured pIC50 for this compound: CC[C@H](C)[C@@H]([C@@H](CC(=O)N1CCC[C@H]1[C@H](OC)[C@@H](C)C(=O)N[C@H](C(=O)OCc1ccccc1)[C@@H](C)c1ccccc1)OC)N(C)C(=O)[C@@H](NC(=O)[C@H](C(C)C)N(C)CCCC(=O)O)C(C)C
9.40

Please give the measured pIC50 for this compound: CC[C@H](C)[C@@H]([C@@H](CC(=O)N1CCC[C@H]1[C@H](OC)[C@@H](C)C(=O)N[C@H](C(=O)NCc1ccccc1)[C@@H](C)O)OC)N(C)C(=O)[C@@H](NC(=O)[C@H](C(C)C)N(C)CCCC(=O)O)C(C)C [Example 25] ({NMeVal(N-(CH2)3COOH)}-V[Dil][Dolaproine]T-NHBn)
8.82

meta.source: patent US8987209B2
